# Tested on: CCRF-CEM leukemia
# procedure-details: NCI-60 one-dose screen, 48 h (100 = growth as untreated, 0 = no growth, -100 = all killed)
# reported-conditions: 10 µM unless noted
The panel holds about 83,000 compounds, 20% with a hit somewhere; the sample as a whole holds those more often.
# growth per entry
measure-name: growth (%)

molecule=O=Cc1c[nH]c2ccc(NC(=O)OCc3ccccc3)cc12 measure_name=growth value=83.8
molecule=Nc1nc(SCc2ccccc2Cl)c(-c2ccccc2)c(SCc2ccccc2Cl)n1 measure_name=growth value=78.4
molecule=Cc1cc([N+](=O)[O-])c(C)cc1C(=O)O measure_name=growth value=104
molecule=COc1ccc2c(c1)/C(=C\c1c[nH]c3ccc(F)cc13)C(=O)N2 measure_name=growth value=78.9
molecule=O=C(CN1CCCCC1)Sc1nnc2sc3ccccc3n12 measure_name=growth value=104
molecule=COc1ccc(CCN2CCCN3C2=Nc2ccccc2S3(=O)=O)cc1 measure_name=growth value=19.4
molecule="O=C(C(=O)N1CCOCC1)c1ccc(OC2OC(CO)C(O)C(O)C2O)cc1 (stereo not given)" measure_name=growth value=107
molecule=COc1ccc(-c2csc(NC(=O)c3cc(O)c(O)c(O)c3)n2)cc1 measure_name=growth value=18.5
molecule="CC[C@]1(O)CC2CN(CCc3c([nH]c4ccccc34)[C@@](C(=O)OC)(c3cc4c(cc3OC)N(C)[C@H]3[C@@](O)(C(=O)OC)[C@H](OC(C)=O)[C@]5(CC)C=CCN6CC[C@]43[C@@H]65)C2)C1 (stereo not given in full)" measure_name=growth value=10.7
molecule=NC(=O)N/N=C/c1ccc(Br)o1 measure_name=growth value=108
